- measured_on: T1, tomato ethylene receptor protein LeETR1 (tomato, UniProt Q41342 1-754, Alexa Fluor 488 succinimidyl-ester label (MST with LeEIN2, FRET assay); Alexa Fluor 488-Maleimide label (MST with NOP-1); non-labeled in the reverse MST titration)
- T1 construct: ethylene receptor ETR1 of tomato (LeETR1); Membrane protein kept in 0.015% Fos-Choline-16 for MST; also called tomato ETR1; tomato receptor
- T1 sequence (looked up): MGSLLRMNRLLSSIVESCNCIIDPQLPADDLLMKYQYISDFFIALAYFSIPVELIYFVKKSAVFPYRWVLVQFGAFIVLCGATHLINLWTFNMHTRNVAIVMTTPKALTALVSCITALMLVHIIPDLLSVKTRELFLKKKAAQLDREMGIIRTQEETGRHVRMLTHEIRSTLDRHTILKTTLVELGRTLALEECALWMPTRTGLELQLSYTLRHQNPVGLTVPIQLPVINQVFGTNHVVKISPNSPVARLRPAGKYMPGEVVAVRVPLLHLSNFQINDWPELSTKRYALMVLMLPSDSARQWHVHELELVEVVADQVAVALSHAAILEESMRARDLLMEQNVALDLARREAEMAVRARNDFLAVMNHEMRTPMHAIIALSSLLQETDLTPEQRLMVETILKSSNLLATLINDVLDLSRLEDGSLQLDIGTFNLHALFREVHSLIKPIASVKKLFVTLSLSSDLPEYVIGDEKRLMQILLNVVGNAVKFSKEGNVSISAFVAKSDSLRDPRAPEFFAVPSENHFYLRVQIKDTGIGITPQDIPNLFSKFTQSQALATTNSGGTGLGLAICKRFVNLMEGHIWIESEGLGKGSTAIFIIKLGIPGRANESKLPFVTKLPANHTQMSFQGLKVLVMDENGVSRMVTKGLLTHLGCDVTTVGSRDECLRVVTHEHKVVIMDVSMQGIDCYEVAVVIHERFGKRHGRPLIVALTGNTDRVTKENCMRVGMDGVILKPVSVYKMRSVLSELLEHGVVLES
- test_details: FRET or BRET; in vitro FRET: LeETR1-Alexa Fluor 488 (donor) and LeEIN2 462-1316-Alexa Fluor 568 (acceptor), 3.0 μM each; 50 mM Tris-HCl pH 8.0, 300 mM NaCl, 0.05% Tween 20, 5% glycerol; proteins pre-incubated with peptides; excitation 455 nm, 384-well plates
- experimental_conditions: both partners purified
measurement_kind: IC50

- binder: "H-LKRYKRRL-NH2 (the motif is fully conserved in tomato EIN2; also called NLS-based peptide; source: synthetic peptide (Molecular Proteomics Laboratory of the BMFZ Düsseldorf, >90% purity)) [NOP-1 (LKRYKRRL-NH2)]"
  result: "160 µM"
